These measurements were taken from the RNAGym collection of RNA variant scans (doi:10.1093/nar/gkz1192).

B1: CPEB3 Ribozyme (parent)
chain: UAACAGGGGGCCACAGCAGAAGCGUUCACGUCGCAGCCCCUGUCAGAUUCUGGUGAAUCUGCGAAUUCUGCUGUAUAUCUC

# Variants of: B1
# PROCEDURE TEXT: self-cleavage, relative activity (ratio to wild type); higher = more cleavage; in vitro, sequencing
Classify as follows. Reported self-cleavage greater than or equal to 0.4: Yes. Reported self-cleavage below: No.

| VARIANT LABEL | DISCRETE LABEL |
| --- | --- |
| U54C C59A | No |
| C14G U49C | No |
| G33U A57G | No |
| U43C U58A | No |
| U31A U51C | Yes |
| U58G U80C | No |

Answer whether self-cleavage of U58C U69C is greater than or equal to 0.4.
No

Answer whether self-cleavage of G53U U76C is greater than or equal to 0.4.
Yes
